# Tested on: Staphylococcus aureus
# ASSAY COMMENT: Antimicrobial activity against vancomycin-intermediate Staphylococcus aureus isolate NJ992 assessed as bacterial count at 4 times MIC after 24 hrs by colony counting method
# Assay type: functional
Entries annotated with measured log10CFU/ml
MEASURE: log10CFU/ml

{"TEST SMILES": "CC(=O)NC[C@H]1CN(c2ccc(N3CCOCC3)c(F)c2)C(=O)O1", "OBSERVED": 2.13}
{"TEST SMILES": "CN[C@H](CC(C)C)C(=O)N[C@H]1C(=O)N[C@@H](CC(N)=O)C(=O)N[C@H]2C(=O)N[C@H]3C(=O)N[C@H](C(=O)N[C@H](C(=O)NCCCO/N=C(\\C(=O)N[C@@H]4C(=O)N5C(C(=O)[O-])=C(C[n+]6ccccc6)CS[C@H]45)c4nc(N)sc4Cl)c4cc(O)cc(O)c4-c4cc3ccc4O)[C@H](O)c3ccc(c(Cl)c3)Oc3cc2cc(c3O[C@@H]2O[C@H](CO)[C@@H](O)[C@H](O)[C@H]2O[C@H]2C[C@](C)(N)[C@H](O)[C@H](C)O2)Oc2ccc(cc2Cl)[C@H]1O", "OBSERVED": 3.84}
{"TEST SMILES": "CCCCCCCCCC(=O)N[C@@H](Cc1c[nH]c2ccccc12)C(=O)N[C@H](CC(N)=O)C(=O)N[C@@H](CC(=O)O)C(=O)N[C@@H]1C(=O)NCC(=O)N[C@@H](CCCN)C(=O)N[C@@H](CC(=O)O)C(=O)N[C@H](C)C(=O)N[C@@H](CC(=O)O)C(=O)NCC(=O)N[C@H](CO)C(=O)N[C@@H]([C@H](C)CC(=O)O)C(=O)N[C@@H](CC(=O)c2ccccc2N)C(=O)O[C@@H]1C", "OBSERVED": 3.61}
{"TEST SMILES": "CN[C@H](CC(C)C)C(=O)N[C@H]1C(=O)N[C@@H](CC(N)=O)C(=O)N[C@H]2C(=O)N[C@H]3C(=O)N[C@H](C(=O)N[C@H](C(=O)O)c4cc(O)cc(O)c4-c4cc3ccc4O)[C@H](O)c3ccc(c(Cl)c3)Oc3cc2cc(c3O[C@@H]2O[C@H](CO)[C@@H](O)[C@H](O)[C@H]2O[C@H]2C[C@](C)(N)[C@H](O)[C@H](C)O2)Oc2ccc(cc2Cl)[C@H]1O", "OBSERVED": 2.88}

----------
# Test system: Staphylococcus aureus
# ASSAY COMMENT: Antimicrobial activity against vancomycin-intermediate Staphylococcus aureus after 24 hrs by microdilution method
# Assay type: functional
# PROTOCOL CONDITIONS: Staphylococcus aureus, 24 h
Entries annotated with measured MIC90
MEASURE: MIC90 (µg/mL)

{"TEST SMILES": "CCCCCCCCCC(=O)N[C@@H](Cc1c[nH]c2ccccc12)C(=O)N[C@H](CC(N)=O)C(=O)N[C@@H](CC(=O)O)C(=O)N[C@@H]1C(=O)NCC(=O)N[C@@H](CCCN)C(=O)N[C@@H](CC(=O)O)C(=O)N[C@H](C)C(=O)N[C@@H](CC(=O)O)C(=O)NCC(=O)N[C@H](CO)C(=O)N[C@@H]([C@H](C)CC(=O)O)C(=O)N[C@@H](CC(=O)c2ccccc2N)C(=O)O[C@@H]1C", "OBSERVED": 1}
{"TEST SMILES": "CN[C@H](CC(C)C)C(=O)N[C@H]1C(=O)N[C@@H](CC(N)=O)C(=O)N[C@H]2C(=O)N[C@H]3C(=O)N[C@H](C(=O)N[C@H](C(=O)O)c4cc(O)cc(O)c4-c4cc3ccc4O)[C@H](O)c3ccc(c(Cl)c3)Oc3cc2cc(c3O[C@@H]2O[C@H](CO)[C@@H](O)[C@H](O)[C@H]2O[C@H]2C[C@](C)(N)[C@H](O)[C@H](C)O2)Oc2ccc(cc2Cl)[C@H]1O", "OBSERVED": 8}
{"TEST SMILES": "CN[C@H](CC(C)C)C(=O)N[C@H]1C(=O)N[C@@H](CC(N)=O)C(=O)N[C@H]2C(=O)N[C@H]3C(=O)N[C@H](C(=O)N[C@H](C(=O)NCCCO/N=C(\\C(=O)N[C@@H]4C(=O)N5C(C(=O)[O-])=C(C[n+]6ccccc6)CS[C@H]45)c4nc(N)sc4Cl)c4cc(O)cc(O)c4-c4cc3ccc4O)[C@H](O)c3ccc(c(Cl)c3)Oc3cc2cc(c3O[C@@H]2O[C@H](CO)[C@@H](O)[C@H](O)[C@H]2O[C@H]2C[C@](C)(N)[C@H](O)[C@H](C)O2)Oc2ccc(cc2Cl)[C@H]1O", "OBSERVED": 0.125}
{"TEST SMILES": "CC(=O)NC[C@H]1CN(c2ccc(N3CCOCC3)c(F)c2)C(=O)O1", "OBSERVED": 2}

----------
# Tested on: Staphylococcus aureus
# ASSAY COMMENT: Antimicrobial activity against vancomycin-heteroresistant Staphylococcus aureus after 24 hrs by microdilution method
# Format: functional
# PROTOCOL CONDITIONS: Staphylococcus aureus, 24 h

{"MOLECULE": "CN[C@H](CC(C)C)C(=O)N[C@H]1C(=O)N[C@@H](CC(N)=O)C(=O)N[C@H]2C(=O)N[C@H]3C(=O)N[C@H](C(=O)N[C@H](C(=O)NCCCO/N=C(\\C(=O)N[C@@H]4C(=O)N5C(C(=O)[O-])=C(C[n+]6ccccc6)CS[C@H]45)c4nc(N)sc4Cl)c4cc(O)cc(O)c4-c4cc3ccc4O)[C@H](O)c3ccc(c(Cl)c3)Oc3cc2cc(c3O[C@@H]2O[C@H](CO)[C@@H](O)[C@H](O)[C@H]2O[C@H]2C[C@](C)(N)[C@H](O)[C@H](C)O2)Oc2ccc(cc2Cl)[C@H]1O", "MEASURED TARGET": "Staphylococcus aureus", "MIC50, µg/mL": 0.06}
{"MOLECULE": "CCCCCCCCCC(=O)N[C@@H](Cc1c[nH]c2ccccc12)C(=O)N[C@H](CC(N)=O)C(=O)N[C@@H](CC(=O)O)C(=O)N[C@@H]1C(=O)NCC(=O)N[C@@H](CCCN)C(=O)N[C@@H](CC(=O)O)C(=O)N[C@H](C)C(=O)N[C@@H](CC(=O)O)C(=O)NCC(=O)N[C@H](CO)C(=O)N[C@@H]([C@H](C)CC(=O)O)C(=O)N[C@@H](CC(=O)c2ccccc2N)C(=O)O[C@@H]1C", "MEASURED TARGET": "Staphylococcus aureus", "MIC50, µg/mL": 1}
{"MOLECULE": "CN[C@H](CC(C)C)C(=O)N[C@H]1C(=O)N[C@@H](CC(N)=O)C(=O)N[C@H]2C(=O)N[C@H]3C(=O)N[C@H](C(=O)N[C@H](C(=O)O)c4cc(O)cc(O)c4-c4cc3ccc4O)[C@H](O)c3ccc(c(Cl)c3)Oc3cc2cc(c3O[C@@H]2O[C@H](CO)[C@@H](O)[C@H](O)[C@H]2O[C@H]2C[C@](C)(N)[C@H](O)[C@H](C)O2)Oc2ccc(cc2Cl)[C@H]1O [VANCOMYCIN]", "MEASURED TARGET": "Staphylococcus aureus", "MIC50, µg/mL": 4}
{"MOLECULE": "CC(=O)NC[C@H]1CN(c2ccc(N3CCOCC3)c(F)c2)C(=O)O1 [LINEZOLID]", "MEASURED TARGET": "Staphylococcus aureus", "MIC50, µg/mL": 2}

----------
Entries annotated with measured MBC90
# Tested on: Staphylococcus haemolyticus
# ASSAY COMMENT: Antimicrobial activity against vancomycin-intermediate Staphylococcus haemolyticus after 24 hrs by microdilution method
# Format: functional

{"TEST SMILES": "CCCCCCCCCC(=O)N[C@@H](Cc1c[nH]c2ccccc12)C(=O)N[C@H](CC(N)=O)C(=O)N[C@@H](CC(=O)O)C(=O)N[C@@H]1C(=O)NCC(=O)N[C@@H](CCCN)C(=O)N[C@@H](CC(=O)O)C(=O)N[C@H](C)C(=O)N[C@@H](CC(=O)O)C(=O)NCC(=O)N[C@H](CO)C(=O)N[C@@H]([C@H](C)CC(=O)O)C(=O)N[C@@H](CC(=O)c2ccccc2N)C(=O)O[C@@H]1C", "MBC90, µg/mL": 2}
{"TEST SMILES": "CC(=O)NC[C@H]1CN(c2ccc(N3CCOCC3)c(F)c2)C(=O)O1", "MBC90, µg/mL": 32}
{"TEST SMILES": "CN[C@H](CC(C)C)C(=O)N[C@H]1C(=O)N[C@@H](CC(N)=O)C(=O)N[C@H]2C(=O)N[C@H]3C(=O)N[C@H](C(=O)N[C@H](C(=O)O)c4cc(O)cc(O)c4-c4cc3ccc4O)[C@H](O)c3ccc(c(Cl)c3)Oc3cc2cc(c3O[C@@H]2O[C@H](CO)[C@@H](O)[C@H](O)[C@H]2O[C@H]2C[C@](C)(N)[C@H](O)[C@H](C)O2)Oc2ccc(cc2Cl)[C@H]1O", "MBC90, µg/mL": 8}
{"TEST SMILES": "CN[C@H](CC(C)C)C(=O)N[C@H]1C(=O)N[C@@H](CC(N)=O)C(=O)N[C@H]2C(=O)N[C@H]3C(=O)N[C@H](C(=O)N[C@H](C(=O)NCCCO/N=C(\\C(=O)N[C@@H]4C(=O)N5C(C(=O)[O-])=C(C[n+]6ccccc6)CS[C@H]45)c4nc(N)sc4Cl)c4cc(O)cc(O)c4-c4cc3ccc4O)[C@H](O)c3ccc(c(Cl)c3)Oc3cc2cc(c3O[C@@H]2O[C@H](CO)[C@@H](O)[C@H](O)[C@H]2O[C@H]2C[C@](C)(N)[C@H](O)[C@H](C)O2)Oc2ccc(cc2Cl)[C@H]1O", "MBC90, µg/mL": 0.125}
